Reported %Inh values for the following compounds.
system: MAP4K2; details: concentration: 1 μM,replicates: in singlicate; n = 1;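 also: KINOMEscan kinase panel screen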
ASSAY_METRIC: %Inh (%)

* C[C@@H](Oc1cc(-n2cnc3ccc(-c4ccncc4)cc32)sc1C(N)=O)c1ccccc1Cl [GSK483724] | 10
* C[C@@H]1CNc2c(sc3ccc4nc(-c5ccc(O)cc5)ccc4c23)C(=O)N1 | 85
* FC(F)(F)c1cc(Br)cc(Nc2nccc(-c3cnn4ncccc34)n2)c1 [GW810578] | 41

###

system: SRPK3; conditions: concentration: 1 μM,replicates: in singlicate; n = 1
Sorting guide: entries reporting %Inh beneath 10% go in the class 1 pile, the rest go in the class 0 pile.

* CCN1CCN(CCCC(=O)Nc2n[nH]c3nc(-c4ccc(O)cc4)c(Br)cc23)CC1 [SB-731579] | class 0
* NC(=O)Nc1sc(-c2ccc(F)cc2)cc1C(N)=O [GW789449] | class 0
* OCCn1cc(-c2cnc3nnn(Cc4ccc5ncccc5c4)c3n2)cn1 | class 1
* Cn1ccc2ncnc(Oc3ccc(NC(=O)Nc4cccc(C(F)(F)F)c4)c(F)c3)c21 | class 0
* C[C@@H](Oc1cc(-n2cnc3cc(-c4cnn(C)c4)ccc32)sc1C(N)=O)c1ccccc1Cl [GSK580432] | class 0
* CC(=O)c1c(-c2ccncc2)[nH]c(-c2ccncc2)c1C [GW493036] | class 1
* Cn1ccc2ncnc(Oc3ccc(NC(=O)Nc4cc(C(C)(C)C)on4)c(Cl)c3)c21 | class 1

###

tested on: TAOK2; settings: concentration: 1 μM,replicates: in singlicate; n = 1
ASSAY_METRIC: %Inh (%)

- Cn1cc(-c2cccc3c(N)c(C(N)=O)nnc23)cn1: 29
- CCNCC(Cc1ccccc1)NC(=O)c1cc(Br)c(-c2ccnc3[nH]ccc23)s1.Cl.Cl (stereo not drawn) [GSK1383280]: 0
- CS(=O)(=O)c1cccc(CNc2nc(Nc3ccc4c(c3)[C@@H]3C[C@@H]4CNC3=O)ncc2C(F)(F)F)c1: 24
- CC(=O)c1c(-c2ccncc2)[nH]c(-c2ccncc2)c1C [GW493036]: 0
- Nc1nccc(-c2ccc3c(N)n[nH]c3c2)n1 [GSK1034945]: 0
- O=C(Nc1cccc(C(F)(F)F)c1)c1cccc(Oc2ccc3nccn3n2)c1: 9
- C[C@@H](Oc1cc(-n2cnc3cc(-c4cnn(C)c4)ccc32)sc1C(N)=O)c1ccccc1Cl [GSK580432]: 0
- CS(=O)(=O)Nc1ccc(-c2ccnc3[nH]ccc23)cc1 [GSK993273]: 0
- CCn1c(-c2nonc2N)nc2cncc(CNC3CCNCC3)c21.Cl [SB-747651]: 1
- Cn1ccc2ncnc(Oc3ccc(NC(=O)Nc4cccc(C(F)(F)F)c4)c(Cl)c3)c21: 23
- COc1cccc(OC)c1C(=O)Nc1cccc(-c2nn3ccccc3c2-c2ccnc(Nc3cccc(F)c3)n2)c1 [GSK361065]: 15
- CCN1CCN(CCCC(=O)Nc2n[nH]c3nc(-c4ccc(O)cc4)c(Br)cc23)CC1 [SB-731579]: 65
- NC(=O)Nc1sc(-c2ccc(F)cc2)cc1C(N)=O [GW789449]: 41
- COc1cc(Nc2nccc(N3CCC(NC(=O)c4cccc(C#N)c4)C3)n2)cc(OC)c1OC (stereo not drawn) [GSK1379751]: 0
- CCn1c(-c2nonc2N)nc2cncc(Br)c21 [SB-738004]: 1
- O=C(Nc1n[nH]c2cc(-c3ccco3)ccc12)C1CC1 [SB-737447]: 5
- CC(C)S(=O)(=O)N1CCN(Cc2ccc3c(c2)nc(NC(=O)c2ccsc2)n3C[C@H](O)c2ccccc2)CC1 [GW635815]: 0
- COC(=O)c1cccc(NC(=O)NC2CCN(c3ccnc(Nc4cc(OC)c(OC)c(OC)c4)n3)C2)c1 (stereo not drawn) [GSK1379767]: 0

###

system: WNK1; details: concentration: 1 μM,replicates: in singlicate; n = 1
%Inh of 9% or higher: yes. Under 9%: no.

- O=C(Nc1cccc(C(F)(F)F)c1)c1cccc(Oc2ccc3nccn3n2)c1: yes
- COc1cccc(CNC(=O)NC2CCN(c3ccnc(Nc4cc(OC)c(OC)c(OC)c4)n3)C2)c1 (stereo not drawn): no
- Nc1nccc(-c2ccc3c(N)n[nH]c3c2)n1: no
- Cc1cccc2c(-c3ccncc3)c(-c3ccc(F)cc3)nn12.Cl: no
- CCOC(=O)N1CCC(n2cnc(-c3ccc(F)cc3)c2-c2ccnc(N)n2)CC1: yes
- c1ccc(Oc2ccc(Nc3ccnc4ccc(-c5ccccn5)cc34)cc2)cc1: yes
- COC(=O)c1cccc(NC(=O)NC2CCN(c3ccnc(NCc4ccc(F)cc4)n3)CC2)c1: yes
- Cn1cc(-c2cccc3c(N)c(C(N)=O)nnc23)cn1: yes
- CC(C(=O)NC1CCN(c2ccnc(Nc3ccc(F)cc3)n2)C1)c1ccc(Cl)cc1 (stereo not drawn): no
- Cn1ccc2ncnc(Oc3ccc(NC(=O)Nc4cnn(C(C)(C)C)c4)c(Cl)c3)c21: yes
- Cc1ccn2nc(-c3ccc(F)cc3)c(-c3ccncc3)c2c1.Cl: no
- CCn1c(-c2nonc2N)nc2cncc(CNC3CCNCC3)c21.Cl: yes
- NC(=O)c1ccc(-c2cc3ncnc(SCC(=O)O)c3s2)cc1: no
- OCCn1cc(-c2cnc3nnn(Cc4ccc5ncccc5c4)c3n2)cn1: no
- CN1CCN(CCNc2nc3cc(Oc4ccc(NC(=O)Nc5cc(C(F)(F)F)ccc5F)cc4)ccc3[nH]2)CC1.Cl.Cl: no
- COc1cc(Nc2nccc(N3CCC(NC(=O)c4cccc(C#N)c4)C3)n2)cc(OC)c1OC (stereo not drawn): yes
- Cn1ccc2ncnc(Oc3ccc(NC(=O)Nc4cccc(C(F)(F)F)c4)c(Cl)c3)c21: no

###

system: PRKG1; details: concentration: 1 μM,replicates: in singlicate; n = 1
ASSAY_METRIC: %Inh (%)

- NC(=O)Nc1sc(-c2ccc(F)cc2)cc1C(N)=O: 6
- C[C@@H]1CNc2c(sc3ccc4nc(-c5ccc(O)cc5)ccc4c23)C(=O)N1: 12
- COC(=O)c1cccc(NC(=O)NC2CCN(c3ccnc(Nc4cc(OC)c(OC)c(OC)c4)n3)C2)c1 (stereo not drawn): 0
- O=c1[nH]cc(-c2ccc(O)cc2)c2sc(-c3ccncc3)cc12: 16
- Cc1cccc(-c2nc(Nc3ccncc3)c3sccc3n2)n1: 7
- O=C(Nc1cccc(Oc2ccc3nccn3n2)c1)Nc1cccc(C(F)(F)F)c1: 6
- COc1cccc(OC)c1C(=O)Nc1cccc(-c2nn3ccccc3c2-c2ccnc(Nc3cccc(F)c3)n2)c1: 11
- CC(=O)c1c(-c2ccncc2)[nH]c(-c2ccncc2)c1C: 75
- CCNCC(Cc1ccccc1)NC(=O)c1cc(Br)c(-c2ccnc3[nH]ccc23)s1.Cl.Cl (stereo not drawn): 99

###

Catalogue of %Inh readings, one per entry.
system: YES; construct: gene YES1; conditions: concentration: 1 μM,replicates: in singlicate; n = 1
ASSAY_METRIC: %Inh (%)

- C[C@@H](Oc1cc(-n2cnc3ccc(-c4ccncc4)cc32)sc1C(N)=O)c1ccccc1Cl: 16
- COC(=O)c1cccc(NC(=O)NC2CCN(c3ccnc(NCc4ccc(F)cc4)n3)CC2)c1: 8
- Cc1nnc(-c2ccc3occ(-c4ccc(S(C)=O)cc4)c3n2)o1 (centres unmarked): 0
- O=C(Nc1cccc(Oc2ccc3nccn3n2)c1)Nc1cccc(C(F)(F)F)c1: 0
- O=C(Nc1cccc(C(F)(F)F)c1)c1cccc(Oc2ccc3nccn3n2)c1: 0
- C[C@@H](Oc1cc(-n2cnc3cc(-c4cnn(C)c4)ccc32)sc1C(N)=O)c1ccccc1Cl: 73
- O=C(Nc1ccccc1)c1cccc(Oc2ccc3nccn3n2)c1: 0
- COC(=O)c1cccc(NC(=O)NC2CCN(c3ccnc(Nc4cc(OC)c(OC)c(OC)c4)n3)C2)c1 (centres unmarked): 0
- O=C(Nc1ccc(Oc2ccc3nc(NC(=O)C4CC4)cn3n2)c(F)c1)c1cccn(-c2ccccc2)c1=O: 45
- C[C@@H]1CCN(C(=O)N2CCCC2)C[C@@H]1N(C)c1ncnc2[nH]ccc12: 0
- N#Cc1cccc(C(=O)NC2CCN(c3ccnc(Nc4ccc(F)cc4)n3)C2)c1 (centres unmarked): 0
- Cc1ccc(CC(=O)N2CCc3cc(-c4cn(C)c5ncnc(N)c45)ccc32)cc1: 25
- COc1cccc(CNC(=O)NC2CCN(c3ccnc(Nc4cc(OC)c(OC)c(OC)c4)n3)C2)c1 (centres unmarked): 7
- CCNCC(Cc1ccccc1)NC(=O)c1cc(Br)c(-c2ccnc3[nH]ccc23)s1.Cl.Cl (centres unmarked): 19
- C[C@@H](Oc1cc(-n2cnc3cc(-c4ccncc4)ccc32)sc1C(N)=O)c1ccccc1Cl: 44
- CN(c1ccc2c(c1)nc(NCc1ccc(F)cc1)n2C)c1ccnc(Nc2ccc(CS(C)(=O)=O)cc2)n1.Cl: 7
- CN(c1ccccc1CNc1nc(Nc2ccc3c(c2)CC(=O)N3)ncc1C(F)(F)F)S(C)(=O)=O: 29
